For each entry below, report its Bliss excess value.
System: T-T (Esophageal Squamous Cell Carcinoma)
Assay: Bliss excess, mean over the matrix (fraction); higher = more synergy
The response must contain the number and no unit.

Param item = Cc1c2c(nn1C)CSCc1cc(n(C)n1)CSc1cc(c3ccccc3c1)OCCCc1c(C(=O)O)n(C)c3c-2c(Cl)ccc13 [AZD5991] + C1CN(CCC1(C(=O)N[C@@H](CCO)C2=CC=C(C=C2)Cl)N)C3=NC=NC4=C3C=CN4 [Capivasertib] (first compound max 1 µM, 7x7, partner max 3 µM) ; retrieve measured Bliss excess.
-0.0068

Param item = Cc1c2c(nn1C)CSCc1cc(n(C)n1)CSc1cc(c3ccccc3c1)OCCCc1c(C(=O)O)n(C)c3c-2c(Cl)ccc13 [AZD5991] + C[C@@H]1COCCN1C2=NC(=NC(=C2)C3(CC3)[S@](=N)(=O)C)C4=C5C=CNC5=NC=C4 [AZD6738] (first compound max 1 µM, 7x7, partner max 10 µM) ; retrieve measured Bliss excess.
0.0461

Param item = CC1(C)CCC(CN2CCN(c3ccc(C(=O)NS(=O)(=O)c4ccc(NCC5CCOCC5)c([N+](=O)[O-])c4)c(Oc4cnc5[nH]ccc5c4)c3)CC2)=C(c2ccc(Cl)cc2)C1 [Venetoclax] + Cn1cnc2c(F)c(Nc3ccc(Br)cc3Cl)c(C(=O)NOCCO)cc21 [Selumetinib] (first compound max 1 µM, 7x7, partner max 3 µM) ; retrieve measured Bliss excess.
0.009

---

Test system: COR-L279 (Small Cell Lung Carcinoma)
Test: combination Emax (second highest fraction inhibited in the dose matrix, 72 h); higher = more inhibition; extreme values may be limits of the assay
For each entry below, report its combination Emax value.

Param item = CC1(C)CCC(CN2CCN(c3ccc(C(=O)NS(=O)(=O)c4ccc(NCC5CCOCC5)c([N+](=O)[O-])c4)c(Oc4cnc5[nH]ccc5c4)c3)CC2)=C(c2ccc(Cl)cc2)C1 [Venetoclax] + Cc1cc2ncnn2cc1Nc1ncc2c(n1)n(C1CCOCC1)c(=O)n2C [AZD7648] (first compound max 1 µM, 7x7, partner max 10 µM) ; retrieve measured combination Emax.
0.372

Param item = COc1nnc2ccc(N3CCC(c4ccc(OCCN5CCN(C)C(=O)[C@H]5C)cc4)CC3)nn12 [AZD5153] + Cc1c2c(nn1C)CSCc1cc(n(C)n1)CSc1cc(c3ccccc3c1)OCCCc1c(C(=O)O)n(C)c3c-2c(Cl)ccc13 [AZD5991] (first compound max 1 µM, 7x7, partner max 1 µM) ; retrieve measured combination Emax.
0.982

Param item = C[C@@H]1COCCN1c1cc(C2([S@](C)(=N)=O)CC2)nc(-c2ccnc3[nH]ccc23)n1 [AZD6738] + Nc1ccn([C@@H]2O[C@H](CO)[C@@H](O)C2(F)F)c(=O)n1 [Gemcitabine] (first compound max 10 µM, 7x7, partner max 0.3 µM) ; retrieve measured combination Emax.
0.995

---

Test system: NCI-H520 (Squamous Cell Lung Carcinoma)
Assay: Bliss excess, mean over the matrix (fraction); higher = more synergy
For each entry below, report its Bliss excess value.
The response must contain the number and no unit.

Param item = C[C@@H](Oc1cc(-c2cnn(C3CCNCC3)c2)cnc1N)c1c(Cl)ccc(F)c1Cl [Crizotinib] + CC1=C(C(=CC=C1)Cl)NC(=O)C2=CN=C(S2)NC3=CC(=NC(=N3)C)N4CCN(CC4)CCO [Dasatinib] (first compound max 10 µM, 7x7, partner max 2 µM) ; retrieve measured Bliss excess.
0.0375

Param item = CCc1c2c(nc3ccc(O)cc13)-c1cc3c(c(=O)n1C2)COC(=O)[C@]3(O)CC [SN-38] + O=C(c1cc(Cc2n[nH]c(=O)c3ccccc23)ccc1F)N1CCN(C(=O)C2CC2)CC1 [Olaparib] (first compound max 0.3 µM, 7x7, partner max 10 µM) ; retrieve measured Bliss excess.
0.0654

Param item = COc1nnc2ccc(N3CCC(c4ccc(OCCN5CCN(C)C(=O)[C@H]5C)cc4)CC3)nn12 [AZD5153] + C=CCn1c(=O)c2cnc(Nc3ccc(N4CCN(C)CC4)cc3)nc2n1-c1cccc(C(C)(C)O)n1 [AZD1775] (first compound max 1 µM, partner max 1 µM) ; retrieve measured Bliss excess.
-0.0115

Param item = O=C(c1cc(Cc2n[nH]c(=O)c3ccccc23)ccc1F)N1CCN(C(=O)C2CC2)CC1 [Olaparib] + COc1nnc2ccc(N3CCC(c4ccc(OCCN5CCN(C)C(=O)[C@H]5C)cc4)CC3)nn12 [AZD5153] (first compound max 10 µM, 7x7, partner max 1 µM) ; retrieve measured Bliss excess.
-0.0134
